Quick reference for abundance fitness among some variants
B1: Transcription factor SOX-11, residues 50 to 117; numbered along this chain, P35716 (parent)
chain: KRPMNAFMVWSKIERRKIMEQSPDMHNAEISKRLGKRWKMLKDSEKIPFIREAERLRLKHMADYPDYK

Variants of: B1
Assay: abundance fitness (aPCA) (normalised: wild type 0, dead -1); higher = more abundant; growth selection in yeast, the domain comes from the species named
Conditions: Homo sapiens

Recorded abundance fitness (variant "K39M" ): -0.211

Recorded abundance fitness (variant "Q21D" ): -0.267

Recorded abundance fitness (variant "R55N" ): -0.087

Recorded abundance fitness (variant "L34F" ): -0.68

Recorded abundance fitness (variant "G35K" ): 0.484

Recorded abundance fitness (variant "P23I" ): -0.869

Recorded abundance fitness (variant "L34Y" ): -0.826

Recorded abundance fitness (variant "K46S" ): -0.996

Recorded abundance fitness (variant "H26Q" ): 0.064

Recorded abundance fitness (variant "K42G" ): -0.221

Recorded abundance fitness (variant "G35M" ): 0.17

Recorded abundance fitness (variant "M19S" ): -0.264

Recorded abundance fitness (variant "E45M" ): -0.314

Recorded abundance fitness (variant "R55E" ): -0.017

Recorded abundance fitness (variant "E45R" ): -0.891

Recorded abundance fitness (variant "E20S" ): -0.36

Recorded abundance fitness (variant "S22P" ): -0.841

The measurements presented in this section are drawn from the Human Domainome abundance scans (Beltran et al. 2025).
